Recorded values, source paper PMC10418970.

# target-entity: Bovine serum albumin (BSA) (Bos taurus, UniProt P02769)
# Construct: purchased Sigma Aldrich
# Sequence (P02769 25-607): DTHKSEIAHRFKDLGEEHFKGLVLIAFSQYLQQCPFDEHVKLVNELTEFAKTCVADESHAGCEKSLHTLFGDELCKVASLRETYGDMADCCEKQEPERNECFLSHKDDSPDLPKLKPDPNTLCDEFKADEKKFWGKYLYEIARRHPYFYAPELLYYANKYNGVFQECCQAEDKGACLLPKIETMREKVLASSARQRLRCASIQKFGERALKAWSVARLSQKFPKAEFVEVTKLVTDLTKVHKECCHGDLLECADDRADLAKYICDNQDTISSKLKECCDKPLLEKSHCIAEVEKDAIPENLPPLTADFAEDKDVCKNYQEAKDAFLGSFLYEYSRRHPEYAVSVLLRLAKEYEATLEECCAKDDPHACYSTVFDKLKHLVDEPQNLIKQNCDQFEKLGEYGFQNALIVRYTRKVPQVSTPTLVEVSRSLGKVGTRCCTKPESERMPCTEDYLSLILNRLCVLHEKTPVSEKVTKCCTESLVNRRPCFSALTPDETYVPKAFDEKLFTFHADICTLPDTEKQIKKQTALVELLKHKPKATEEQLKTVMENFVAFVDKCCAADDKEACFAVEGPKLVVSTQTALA
# procedure-summary: BSA fluorescence titration (Stern-Volmer, Scatchard)
# Type: binding
# run-parameters: [BSA] 1 μM, complex 0-20 μM, phosphate buffer pH 7.2
measure-name: BSA quenching constant Kq

Ask | Param readout= BSA quenching constant Kq; system= Bovine serum albumin (BSA) (Bos taurus, UniProt P02769); entry= CCOC(=O)c1ccnc(-c2cc(C(=O)OCC)ccn2)c1.[Cl-].[Cl-].[Ru+2].c1ccccc1 [Complex 7] ; returns value.
Reply | 4.779 × 10^4 10^4 M^−1

Ask | Report BSA quenching constant Kq for COC(=O)c1ccnc(-c2cc(C(=O)OC)ccn2)c1.[Cl-].[Cl-].[Ru+2].c1ccccc1 [Complex 6] tested on Bovine serum albumin (BSA) (Bos taurus, UniProt P02769).
Reply | 3.103 × 10^4 10^4 M^−1

Ask | Return BSA quenching constant Kq measured with Bovine serum albumin (BSA) (Bos taurus, UniProt P02769) given this compound: CCOC(=O)c1ccnc(-c2cc(C(=O)OCC)ccn2)c1.Cc1ccc(C(C)C)cc1.[Cl-].[Cl-].[Ru+2] [Complex 4]
Reply | 3.777 × 10^4 10^4 M^−1

Ask | # value lookup — system Bovine serum albumin (BSA) (Bos taurus, UniProt P02769), readout BSA quenching constant Kq, item COC(=O)c1ccnc(-c2cc(C(=O)OC)ccn2)c1.Cc1ccc(C(C)C)cc1.[Cl-].[Cl-].[Ru+2] [Complex 3]
Reply | 3.622 × 10^4 10^4 M^−1

Ask | Requested read-out BSA quenching constant Kq, target or system Bovine serum albumin (BSA) (Bos taurus, UniProt P02769), entry Cc1ccc(C(C)C)cc1.O=C(O)c1ccnc(-c2cc(C(=O)O)ccn2)c1.[Cl-].[Cl-].[Ru+2] [Complex 2, [Ru-η^6-p-cymene-(4,4′-(COOH)2bipy)Cl]Cl]
Reply | 6.446 × 10^4 10^4 M^−1

* * *

I'd appreciate it if you could supply IC50 values for the items below.
# Tested on: HepG-2-hepatic cells
# procedure-summary: MTT cell proliferation assay, HepG-2
# Type: cell-based, human
# run-parameters: 24 h incubation
Give your result in µM as a bare value.

Ask | Endpoint output: IC50 of N.N.[Cl][Pt][Cl] [Cisplatin, reference compound] . Value?
Reply | 49.1

Ask | What IC50 value was documented for this compound, CCOC(=O)c1ccnc(-c2cc(C(=O)OCC)ccn2)c1.[Cl-].[Cl-].[Ru+2].c1ccccc1 [Complex 7] ?
Reply | 41.6

Ask | Given the entry CCOC(=O)c1ccnc(-c2cc(C(=O)OCC)ccn2)c1.Cc1ccc(C(C)C)cc1.[Cl-].[Cl-].[Ru+2] [Complex 4] , report its measured IC50.
Reply | 21.1

Ask | Using the record for COC(=O)c1ccnc(-c2cc(C(=O)OC)ccn2)c1.[Cl-].[Cl-].[Ru+2].c1ccccc1 [Complex 6] , report its IC50.
Reply | 14.5
